# METHOD SUMMARY: in vitro
# EXPERIMENTAL CONTEXT: dog
For each of the molecules below, state its viability at 3 days, 300 µM.

Challenge: Given the molecule `O=C(Nc1ccn([C@@H]2O[C@H](CO)[C@@H](O)C2(F)F)c(=O)n1)c1cccc(-c2ccccc2)n1` , what is its reported viability at 3 days, 300 µM?
Response given: > 90%

Next, consider the following molecule.
Challenge: Given the molecule `Nc1ccc(C(=O)Nc2ccn([C@@H]3O[C@H](CO)[C@@H](O)C3(F)F)c(=O)n2)nc1` , what is its reported viability at 3 days, 300 µM?
Response given: > 90%

====

# Tested on: A/Hong Kong/8/68 (H3N2)
# EXPERIMENTAL CONTEXT: ratio of CC10 to EC90
PROPERTY: SI90 HK

Challenge: Given the compound `O=C(Nc1ccn([C@@H]2O[C@H](CO)[C@@H](O)C2(F)F)c(=O)n1)c1ccc(F)nc1` , what is its reported SI90 HK?
Response given: 51.2

Challenge: Given the compound `O=C(Nc1ccn([C@@H]2O[C@H](CO)[C@@H](O)C2(F)F)c(=O)n1)c1cccc(-c2ccccc2)n1` , what is its reported SI90 HK?
Response given: > 20.7

Challenge: Given the compound `O=C(Nc1ccn([C@@H]2O[C@H](CO)[C@@H](O)C2(F)F)c(=O)n1)c1ccccn1` , what is its reported SI90 HK?
Response given: 7.1

Challenge: Given the compound `Cc1ccc(C(=O)Nc2ccn([C@@H]3O[C@H](CO)[C@@H](O)C3(F)F)c(=O)n2)cn1` , what is its reported SI90 HK?
Response given: 7.3

Challenge: Given the compound `Cc1cccnc1C(=O)Nc1ccn([C@@H]2O[C@H](CO)[C@@H](O)C2(F)F)c(=O)n1` , what is its reported SI90 HK?
Response given: > 7.3

Challenge: Given the compound `Nc1ccc(C(=O)Nc2ccn([C@@H]3O[C@H](CO)[C@@H](O)C3(F)F)c(=O)n2)nc1` , what is its reported SI90 HK?
Response given: > 26.3

Give me SI90 HK for each of these compounds, listed below.
1. COc1ccc(C(=O)Nc2ccn([C@@H]3O[C@H](CO)[C@@H](O)C3(F)F)c(=O)n2)nc1
2. O=C(Nc1ccn([C@@H]2O[C@H](CO)[C@@H](O)C2(F)F)c(=O)n1)c1ccc(F)cn1
3. Cc1ccc(C(=O)Nc2ccn([C@@H]3O[C@H](CO)[C@@H](O)C3(F)F)c(=O)n2)nc1
4. O=C(Nc1ccn([C@@H]2O[C@H](CO)[C@@H](O)C2(F)F)c(=O)n1)c1ccc(-c2ccccc2)cn1
5. NC(=O)c1nc(F)c[nH]c1=O [Favipiravir, reference compound]
6. O=C(Nc1ccn([C@@H]2O[C@H](CO)[C@@H](O)C2(F)F)c(=O)n1)c1ccccc1

Response given:
> 9.3
> 28.0
1.8
> 1.4
> 43.5
> 3.1

Data provenance: paper PMC10081574
